target: human MyD88 (human) (UniProt Q99836); assay: P8 phage display panning on plate-immobilised MyD88, after round 4, NGS
Parameter: Population. Scope: all listed entries.
# number only, unit % dropped from output

{"columns": ["binder", "reported-metric", "assay-value"],
 "data": [
  ["IDDDHLTYLVRLLLSR", "Population", 1.18],
  ["YASSSWALDELLRILY", "Population", 0.9],
  ["LEANDSLFWDRLLYSL", "Population", 0.56],
  ["LGYHWIDWEYFVGIED", "Population", 9.72],
  ["DPQDLEWFYERLFSQM", "Population", 1.73]
]}

# input binder: YAASPWWFDELVKIVG ; wanted: its Population
1.32

Can you handle MFGGDTFHDFLDLISM next?
0.57
